This listing pairs molecules with measured IC50.
tested-target: FGFR3 kinase (Homo sapiens (Human), UniProt P22607, K650E)
Sequence (P22607 23-806 K650E): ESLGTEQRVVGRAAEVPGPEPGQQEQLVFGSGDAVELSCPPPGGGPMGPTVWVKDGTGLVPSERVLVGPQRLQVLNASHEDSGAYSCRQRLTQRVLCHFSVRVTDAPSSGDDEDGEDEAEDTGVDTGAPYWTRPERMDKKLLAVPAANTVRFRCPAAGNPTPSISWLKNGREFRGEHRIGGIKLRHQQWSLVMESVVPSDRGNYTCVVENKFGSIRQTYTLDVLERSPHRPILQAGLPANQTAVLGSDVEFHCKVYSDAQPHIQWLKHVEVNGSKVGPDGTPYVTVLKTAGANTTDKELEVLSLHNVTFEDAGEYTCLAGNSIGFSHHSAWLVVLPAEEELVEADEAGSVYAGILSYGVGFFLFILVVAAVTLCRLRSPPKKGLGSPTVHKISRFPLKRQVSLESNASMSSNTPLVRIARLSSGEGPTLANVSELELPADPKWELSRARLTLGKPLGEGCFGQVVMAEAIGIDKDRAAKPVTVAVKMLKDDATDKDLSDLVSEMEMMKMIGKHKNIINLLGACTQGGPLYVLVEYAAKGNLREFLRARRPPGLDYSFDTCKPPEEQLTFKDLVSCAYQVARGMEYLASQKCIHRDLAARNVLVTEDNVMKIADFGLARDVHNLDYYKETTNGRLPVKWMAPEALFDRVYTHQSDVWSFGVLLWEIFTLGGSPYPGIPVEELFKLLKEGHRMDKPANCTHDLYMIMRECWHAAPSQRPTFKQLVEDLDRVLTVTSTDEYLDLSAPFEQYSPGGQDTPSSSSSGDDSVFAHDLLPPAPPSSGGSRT
assay-text: FGFR3 kinase inhibition assay (radiometric filter binding / LanthaScreen TR-FRET)
condition-label: read-out: rating (FGFR3 kinase IC50)
result-type: IC50

- structure: "COc1cc(OC)c(Cl)c(-c2ccc(C(=O)Nc3ccc(O)cc3)c3nccnc23)c1Cl"
  result-type: "IC50"
  measured-value: "500 to 50000 nM"
- structure: "COc1cc(OC)c(Cl)c(-c2ccc(C(=O)Nc3ccc(CN4CCN(C)CC4)nc3)c3ncccc23)c1Cl"
  result-type: "IC50"
  measured-value: "100 to 500 nM"
- structure: "COc1cc(OC)c(Cl)c(-c2ccc(C(=O)Nc3ncc[nH]3)c3ncccc23)c1Cl"
  result-type: "IC50"
  measured-value: "< 100 nM"
- structure: "COc1cc(OC)c(Cl)c(-c2ccc(C(=O)Nc3nnc[nH]3)c3nccnc23)c1Cl"
  result-type: "IC50"
  measured-value: "500 to 50000 nM"
- structure: "CCN1CCN(Cc2ccc(NC(=O)c3ccc(-c4c(Cl)c(OC)cc(OC)c4Cl)c4cccnc34)nc2)CC1"
  result-type: "IC50"
  measured-value: "100 to 500 nM"
- structure: "COc1cc(OC)c(F)c(-c2ccc(C(=O)Nc3nc(CN4CCN(C)CC4)c[nH]3)c3nccnc23)c1F"
  result-type: "IC50"
  measured-value: "< 100 nM"
- structure: "COc1cc(OC)c(F)c(-c2ccc(C(=O)Nc3ccc(CN4CCN(C)CC4)nc3)c3nccnc23)c1F"
  result-type: "IC50"
  measured-value: "< 100 nM"
- structure: "COc1cc(OC)c(F)c(-c2ccc(C(=O)Nc3cccnc3)c3nccnc23)c1F"
  result-type: "IC50"
  measured-value: "100 to 500 nM"
- structure: "COc1cc(OC)c(Cl)c(-c2ccc(C(=O)Nc3cnc[nH]3)c3ncccc23)c1Cl"
  result-type: "IC50"
  measured-value: "100 to 500 nM"

All figures here come from patent US8815901B2.
